- Test system: HSB-2 cells
- test_name: Inhibition of HSB-2 leukemic cell line proliferation (WST-1)
- Assay type: cell-based, human
- protocol_conditions: Homo sapiens, HSB2, 48 h, cytotoxicity on HSB-2 cells, two days incubation, WST-1 read-out
I'd be grateful if you could share measured IC50 for these entries.
Numbers only, in nM.

Answered cases to consult:
# test_smiles, attribute_measured, recorded_result
records = [
    ("N#Cc1ccc(NC(=O)N2CCN(c3nc(N)nc4sc(-c5cccnc5)nc34)CC2)cc1", "IC50", 680),
    ("Nc1nc(N2CCN(C(=O)COc3ccc(Cl)cc3)CC2)c2nc(-c3ccccn3)sc2n1", "IC50", 560),
    ("Cc1nc2c(N3CCN(C(=O)COc4ccc(Cl)cc4)CC3)nc(N)nc2[nH]1", "IC50", 2060),
]

Pending compound:
Asked: # value lookup — system HSB-2 cells, readout IC50, item Cc1ccc(NC(=O)N2CCN(c3nc(N)nc4sc(-c5cccnc5)nc34)CC2)cc1
Given back: 50
